Reference source for all entries: patent US8163728B2

Molecular target: GABA A α5 (Homo sapiens, UniProt P18507+P31644)
Construct: membranes prepared from cell pellets
Experiment: [3H]flumazenil competition binding, human GABA A α5β3γ2 receptors in HEK293 cell membranes
Conditions: human receptor α5β3γ2 transiently transfected in HEK293; 0.5 nM [3H]flumazenil; 1 hour at 4° C.; means of two determinations; read-out: hKi GABA A α5
Test readout: Ki (µM)

# Compound, Measured target, Value unit, Ki
data = [
    ("Cn1nc(OCc2c(-c3ccc(F)cc3)noc2CO)cc1C(=O)N1CC2(COC2)C1", "GABA A α5 (Homo sapiens, UniProt P18507+P31644)", "µM", 0.024),
    ("Cc1onc(-c2ccc(F)cc2)c1/C=C/c1cc(C(=O)NCC(F)(F)F)[nH]n1", "GABA A α5 (Homo sapiens, UniProt P18507+P31644)", "µM", 0.0041),
    ("Cc1onc(-c2ccccc2)c1COc1cc(C(=O)NC2CCOC2)n(C)n1 (racemic)", "GABA A α5 (Homo sapiens, UniProt P18507+P31644)", "µM", 0.0097),
    ("CCNC(=O)c1cc(NCc2c(-c3ccc(F)cc3)noc2C)n[nH]1", "GABA A α5 (Homo sapiens, UniProt P18507+P31644)", "µM", 0.0571),
    ("Cc1onc(-c2ccccc2)c1COc1cc(C(=O)NC(C)C)n(C)n1", "GABA A α5 (Homo sapiens, UniProt P18507+P31644)", "µM", 0.0409),
    ("Cc1onc(-c2ccccc2)c1COc1cc(C(=O)NN(C)C)[nH]n1", "GABA A α5 (Homo sapiens, UniProt P18507+P31644)", "µM", 0.0146),
    ("Cc1onc(-c2ccc(F)cc2)c1COc1cc(C(=O)NN(C)C)n(C)n1", "GABA A α5 (Homo sapiens, UniProt P18507+P31644)", "µM", 0.0233),
]

A: Cc1onc(-c2ccccn2)c1COc1cc(C(=O)NC(C)C)nn1C
B: CC(C)NC(=O)c1cc(OCc2c(-c3ccc(F)cc3)noc2CO)nn1C
Which one would you say has the larger Ki value: A , or B ? Please identify the chosen entry by its label.
A
